experiment-summary: Toxicity liver stage against HepG2, at 10uM
Assay type: cell-based
Parameters: test concentration 10 uM, cell line HepG2-A16-CD81EGFP
experimental-conditions: human, HepG2-A16-CD81EGFP cells; read-out: INHIBITION
Each item that follows carries a reported cytotoxicity at 10 µM.
readout: cytotoxicity at 10 µM (%)

> print(dat)
                                    compound    value
 1  O=S1(=O)[C@@H](c2ccccc2)[C@H](CO)CN1C1CC1    -4.83
 2  CC(C)(C)C(=O)NCCC(=O)NS(=O)(=O)c1cccc(C#N)c1     1.01
 3  C1CC(CO[C@@H]2CC[C@H]3[C@H]2OCCN3CC2CCOCC2)CCO1     13.7
 4  Cc1ccc(CN2CCC3(CC2)CC(c2cccnc2)CO3)s1 (centres undefined)     -9.7
 5  COCCN1CCOCC12CCN(C(=O)c1c[nH]c3ccccc13)CC2    -69.8
 6  COc1c(CNCC(O)c2cccc(F)c2)c(C(C)C)nn1C (centres undefined)     2.31
 7   COc1cccc(CNC(=O)c2ccccc2-n2cnc(CN)c2)c1      -17
 8   O=C(Cc1ccc2c(c1)CCC2)N1CCN(c2cnccn2)CC1    -2.18
 9  Cc1noc(C)c1CN1CC[C@H]2OCC[C@@H](C(=O)N3CCCO3)[C@@H]2C1    -8.25
10  O=C(NCc1cccs1)C1CNCC12CCOCC2 (centres undefined)    -5.43
11  C[C@@H]1CN(C(=O)c2ccncc2)CC[C@@]1(O)C1CCOCC1    0.301
12  CC(C)c1noc(-c2ccc(NCCCC3CCOC3)nc2)n1 (centres undefined)    -7.37
13      COCCN(CC(F)F)c1cc(C(F)(F)F)nc2ncnn12     4.11
14  COc1c(CNC2CCc3ccccc32)c(C(C)C)nn1C (centres undefined)    0.441
15  Cc1cn2c(n1)CCC(NS(=O)(=O)c1cc(C)sc1C)C2 (centres undefined)     2.74
16         COc1c[nH]c(C(=O)Nc2nc(C)cs2)cc1=O    -44.4
17       Cn1cc(CNCC2(O)CCCCC2)c(-c2cccnc2)n1     14.9
18      CCNC(=O)N1CCc2ccc(NC(=O)NCC3CC3)cc21     3.53
19  COC(=O)c1ccccc1S(=O)(=O)NC(=O)c1cccc2c1OCCO2    -12.5
20  CCn1nc(C)cc1C(=O)N1C[C@@H](CN(C)C)[C@@H](CO)C1      3.3
21  O=C(c1ccncc1)N1CCOC2(CCCN(c3nncs3)C2)C1 (centres undefined)      -98
22     COc1cc(CN2CCCC2)ccc1Oc1ncccc1C(F)(F)F     0.96
23  Cc1cc(-c2nn(C)c(Cl)c2CN2CCN(C)C(C(=O)O)C2)no1 (centres undefined)  -0.0938
24    O=C(c1nc2c(s1)CCCN2C(=O)C1CC1)N1CCOCC1     4.96
